- Test system: Endogenous Huntingtin Protein
- experimentalProtocol: Endogenous Huntingtin Protein Assay (ELISA-based MSD electrochemiluminescence)
- Assay type: cell-based
- runConditions: Table 2; MSD plates coated with MW1 (expanded polyglutamine) or MAB2166 capture antibody; "inactive" = result above the detection limit of the assay
pIC50: −log10 of the molar value.
Listed below: pIC50 values for each entry.
assayEndpoint: pIC50

{"smi": "C[C@@H]1CN(c2ncc(-c3ccc(-n4nccn4)cc3O)nn2)C[C@H](C)N1", "testedOn": "Endogenous Huntingtin Protein", "assayEndpoint": "pIC50", "resultNumber": 6.36}
{"smi": "Cc1nc2ccc(-c3ccc(-c4cnc(N5C[C@@H](C)N[C@@H](C)C5)nn4)c(O)c3)nn2n1", "testedOn": "Endogenous Huntingtin Protein", "assayEndpoint": "pIC50", "resultNumber": 7.96}
{"smi": "CC(C)[C@H]1CN(c2ncc(-c3ccc(-c4ccc5nn(C)cc5c4)cc3O)nn2)CCN1", "testedOn": "Endogenous Huntingtin Protein", "assayEndpoint": "pIC50", "resultNumber": 8.19}
{"smi": "C[C@@H]1CN(c2ncc(-c3ccc(-c4cn[nH]c4)cc3O)nn2)CCN1", "testedOn": "Endogenous Huntingtin Protein", "assayEndpoint": "pIC50", "resultNumber": 6.72}
